Where do these numbers come from? They come from PubChem BioAssay AID1626.

Listed below: inhibition values for each entry.
assay: M. tuberculosis H37Rv growth inhibitors, H37Rv strain (AID 1626); details: active compounds read high, concentration not given here;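 note: bacteria incubated seven days before Alamar blue readout; 0% = bacteria only wells and 100% = bacteria with antibiotic wells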
Hit rate of the full screen: of about 220,000 compounds, about 2,000 (0.91%) were called active. Inconclusive results (about 2%) are left out. A selection follows. Results with a measured potency or affinity are listed apart.
Hi! Could you send only the number? It should be in %, unit omitted.

COMPOUND | UNITS_OF_MEASURE | inhibition
O=C(CSc1nc(-c2ccccc2)c(-c2ccccc2)[nH]1)NCC1CCCO1 (configuration not stated) | % | -3.58
CCN1/C(=C\C=C2\C(=O)N(C)C(=S)N2C)Sc2ccccc21 | % | 16
Nc1nc(Cn2nnc(-c3ccccc3Cl)n2)nc(N2CCOCC2)n1 | % | -0.22
COc1ccc(C2=NOC(C(=O)N3CCN(c4ccccc4OC)CC3)C2)cc1 (configuration not stated) | % | 10.3
Cc1onc(-c2ccccc2)c1C(=O)Nc1nc(-c2cc(F)ccc2F)cs1 | % | -3.02

Record request: inhibition value, item O=C(NC(=S)Nc1ccccc1[N+](=O)[O-])c1ccccc1Cl
-1.52

Record request: inhibition value, item Cc1cc(C(=O)NNS(=O)(=O)c2cccc(Cl)c2)nn1C(C)(C)C
2.6

Record request: inhibition value, item COc1ccc2nc(C(F)(F)Cl)c(C#N)c(N)c2c1
-0.68

Record request: inhibition value, item CN(C)CCCCCCCCCCC(=O)/C=N/O
7.54

Record request: inhibition value, item C#C[C@]1(O)CCC2C3CCC4=Cc5oncc5CC4(C)C3CCC21C (some centres not stated)
3.82

Record request: inhibition value, item COc1ccc(C(=O)N[C@H](C(=O)OCc2cc(=O)oc3cc(C)ccc23)C(C)C)cc1
9.93
